Hi there, I'd appreciate the recorded IC50 for every entry that follows.
Test system: MM1S cells
method.description: MTT cell proliferation assay
Format: cell-based
condition.info: Homo sapiens, MM1.S; MM1S cell line; read-out: MTT Assay IC50, MM1S

# structure.smiles, result
records = [
    ("Nc1ccc(/C=C/C(=O)NCc2cc3cc(-c4ccc(C(=O)N5CC[C@H](F)C5)cc4)cc(C(F)(F)F)c3o2)cn1", "100 to 5000 nM"),
]

For each of the molecules below, state IC50.
1. Nc1ccc(/C=C/C(=O)NCc2cc3cc(-c4ccc(S(=O)(=O)N5CCOCC5)cc4)cc(Cl)c3o2)cn1
2. Nc1ccc(/C=C/C(=O)NCc2cc3cc(-c4ccc(C(=O)N5CCOCC5)cc4)cc(C(F)(F)F)c3o2)cn1

1. 100 to 5000 nM
2. < 100 nM
